Hello, the source for this data is patent US20130225506A1, in case you need it.

Catalogue of β-Arrestin EC50 values
- targetDesc: chemokine receptor CXCR7 (UniProt P25106 1-362, limits assumed)
- Sequence (P25106 whole entry): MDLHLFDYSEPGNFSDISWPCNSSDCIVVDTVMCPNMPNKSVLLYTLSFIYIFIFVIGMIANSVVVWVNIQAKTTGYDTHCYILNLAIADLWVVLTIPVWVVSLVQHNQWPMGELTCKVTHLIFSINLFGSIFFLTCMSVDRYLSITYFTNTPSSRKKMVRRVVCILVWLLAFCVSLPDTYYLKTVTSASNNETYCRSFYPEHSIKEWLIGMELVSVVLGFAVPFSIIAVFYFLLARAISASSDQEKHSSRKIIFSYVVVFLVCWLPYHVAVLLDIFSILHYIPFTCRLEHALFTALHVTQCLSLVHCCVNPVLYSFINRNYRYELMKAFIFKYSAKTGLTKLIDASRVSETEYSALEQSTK
- assayInfo: cell-based or functional assay
Square brackets hold non-standard residues; d marks the D form. dPro(cis-4-NH2) = N[C@H]1CN[C@@H](C(=O)O)C1; 1Nal = N[C@@H](Cc1cccc2ccccc12)C(=O)O; hArg = N=C(N)NCCCC[C@H](N)C(=O)O; Tic = O=C(O)[C@@H]1Cc2ccccc2CN1; Chg = N[C@H](C(=O)O)C1CCCCC1
Record the value in nM, omitting the unit from your answer.

input: Record request: β-Arrestin EC50 value, item cyclo(R[dF]W[hArg][dPro(cis-4-NH2)][Tic]) (SMILES N=C(N)NCCCC[C@@H]1NC(=O)[C@H](Cc2c[nH]c3ccccc23)NC(=O)[C@@H](Cc2ccccc2)NC(=O)[C@H](CCCNC(=N)N)NC(=O)[C@@H]2Cc3ccccc3CN2C(=O)[C@H]2C[C@@H](N)CN2C1=O) [cyclo(-Arg-^DPhe-Trp-hArg-^DPro((4R)NH2)-Tic-)]
output: 352

input: Now consider cyclo([Chg][dR]RW[dP]T) (SMILES C[C@@H](O)[C@@H]1NC(=O)[C@H]2CCCN2C(=O)[C@H](Cc2c[nH]c3ccccc23)NC(=O)[C@H](CCCNC(=N)N)NC(=O)[C@@H](CCCNC(=N)N)NC(=O)[C@H](C2CCCCC2)NC1=O) [cyclo(-Chg-^DArg-Arg-Trp-^DPro-Thr-)] .
output: 6.7

input: Now consider cyclo(I[dR]RW[dP]T) (SMILES CC[C@H](C)[C@@H]1NC(=O)[C@H]([C@@H](C)O)NC(=O)[C@H]2CCCN2C(=O)[C@H](Cc2c[nH]c3ccccc23)NC(=O)[C@H](CCCNC(=N)N)NC(=O)[C@@H](CCCNC(=N)N)NC1=O) [cyclo(-Ile-^DArg-Arg-Trp-^DPro-Thr-)] .
output: 6.7

input: Now consider cyclo(I[dR]R[1Nal][dP]T) (SMILES CC[C@H](C)[C@@H]1NC(=O)[C@H]([C@@H](C)O)NC(=O)[C@H]2CCCN2C(=O)[C@H](Cc2cccc3ccccc23)NC(=O)[C@H](CCCNC(=N)N)NC(=O)[C@@H](CCCNC(=N)N)NC1=O) [cyclo(-Ile-^DArg-Arg-1Nal-^DPro-Thr-)] .
output: 17.9

input: Now consider cyclo(I[dR]WR[dP]T) (SMILES CC[C@H](C)[C@@H]1NC(=O)[C@H]([C@@H](C)O)NC(=O)[C@H]2CCCN2C(=O)[C@H](CCCNC(=N)N)NC(=O)[C@H](Cc2c[nH]c3ccccc23)NC(=O)[C@@H](CCCNC(=N)N)NC1=O) [cyclo(-Ile-^DArg-Trp-Arg-^DPro-Thr-)] .
output: 62.5
